Would you mind telling me the reported Surf Tens. (surface tension at the CMC) of each entry?
- Assay Notes: Surface tension and critical micelle concentration (CMC) of aqueous surfactant solutions
- Format: physicochemical
- Measurement Context: Table 3; deionized water, at CMC

Lab note: measured Surf Tens. (surface tension at the CMC) of C[N+](C)(CCO)CCCNC(=O)C(F)(C(F)(F)F)C(F)(F)C(F)(F)C(F)(F)C(F)(F)C(F)(F)C(F)(F)C(F)(F)F (stereo not drawn) [Example F4] was 19.0 dynes/cm

Lab note: measured Surf Tens. (surface tension at the CMC) of O=C(OCCc1cccc[n+]1[O-])C(F)(C(F)(F)F)C(F)(F)C(F)(F)C(F)(F)C(F)(F)C(F)(F)C(F)(F)C(F)(F)F (stereo not drawn) [Example E13] was 15.0 dynes/cm

Lab note: measured Surf Tens. (surface tension at the CMC) of C[N+](C)(CCO)CCCNC(=O)C(F)(C(F)(F)F)C(F)(F)C(F)(F)C(F)(F)C(F)(F)C(F)(F)F (stereo not drawn) [Example F3] was 17.0 dynes/cm

---

- Assay Notes: Thermogravimetric analysis of neat perfluorocarboxylate salts
- Assay type: physicochemical
- Measurement Context: neat salt, 10° C./min, nitrogen
Assay Metric: onset temperature of decomposition (°C)
Express the result in °C but write the number alone.

Lab note: measured onset temperature of decomposition of O=C(O)C(F)(C(F)(F)F)C(F)(F)C(F)(F)C(F)(F)C(F)(F)C(F)(F)C(F)(F)F (stereo not drawn) was 165

Lab note: measured onset temperature of decomposition of O=C(O)C(F)(C(F)(F)F)C(F)(F)C(F)(F)C(F)(F)C(F)(F)C(F)(F)C(F)(F)C(F)(F)C(F)(F)F (stereo not drawn) was 142

Lab note: measured onset temperature of decomposition of O=C(O)C(F)(C(F)(F)F)C(F)(F)C(F)(F)C(F)(F)C(F)(F)C(F)(F)C(F)(F)C(F)(F)F (stereo not drawn) was 151

---

Would you mind telling me the reported onset temperature of decomposition of each entry?
- Assay Notes: Thermogravimetric analysis of neat perfluorocarboxylate salts
- Format: physicochemical
- Measurement Context: neat salt, 10° C./min, nitrogen

Lab note: measured onset temperature of decomposition of O=C(O)C(F)(F)C(F)(F)C(F)(F)C(F)(F)C(F)(F)C(F)(F)C(F)(F)F was 173 °C

Lab note: measured onset temperature of decomposition of O=C(O)C(F)(C(F)(F)C(F)(F)F)C(F)(F)C(F)(F)C(F)(F)C(F)(F)C(F)(F)C(F)(F)F (stereo not shown) was 153 °C

Lab note: measured onset temperature of decomposition of O=C(O)C1(F)C(F)(F)C(F)(F)C(F)(F)C(F)(F)C1(F)F [reference compound] was 100 °C

Lab note: measured onset temperature of decomposition of O=C(O)C(F)(C(F)(F)F)C(F)(F)C(F)(F)C(F)(F)C(F)(F)C(F)(F)C(F)(F)C(F)(F)C(F)(F)C(F)(F)C(F)(F)F (stereo not shown) was 164 °C

---

Would you mind telling me the reported temperature for 50% loss of each entry?
- Assay Notes: Thermogravimetric analysis of neat perfluorocarboxylate salts
- Type: physicochemical
- Measurement Context: neat salt, 10° C./min, nitrogen
Express the result in °C but write the number alone.

Lab note: measured temperature for 50% loss of O=C(O)C(F)(F)C(F)(F)C(F)(F)C(F)(F)C(F)(F)C(F)(F)C(F)(F)F [FC-143, C7 F15 COO^- H4 N^+] was 188

Lab note: measured temperature for 50% loss of O=C(O)C(F)(C(F)(F)F)C(F)(F)C(F)(F)C(F)(F)C(F)(F)C(F)(F)C(F)(F)C(F)(F)C(F)(F)F (stereo not shown) [Example M17, C8 F17 CF(CF3)COO^- H4 N^+] was 162

Lab note: measured temperature for 50% loss of O=C(O)C(F)(C(F)(F)F)C(F)(F)C(F)(F)C(F)(F)C(F)(F)C(F)(F)C(F)(F)C(F)(F)F (stereo not shown) [Example M14, C7 F15 CF(CF3)COO^- H4 N^+] was 163

Lab note: measured temperature for 50% loss of O=C(O)C(F)(C(F)(F)C(F)(F)F)C(F)(F)C(F)(F)C(F)(F)C(F)(F)C(F)(F)C(F)(F)F (stereo not shown) [Example M19, C6 F13 CF(C2 F5)COO^- H4 N^+] was 171

Lab note: measured temperature for 50% loss of O=C(O)C1(F)C(F)(F)C(F)(F)C(F)(F)C(F)(F)C1(F)F [reference compound] was 110

Lab note: measured temperature for 50% loss of O=C(O)C(F)(C(F)(F)F)C(F)(F)C(F)(F)C(F)(F)C(F)(F)C(F)(F)C(F)(F)C(F)(F)C(F)(F)C(F)(F)C(F)(F)F (stereo not shown) [Example M18, C10 F21 CF(CF3)COO^- H4 N^+] was 181

Lab note: measured temperature for 50% loss of O=C(O)C(F)(C(F)(F)F)C(F)(F)C(F)(F)C(F)(F)C(F)(F)C(F)(F)C(F)(F)F (stereo not shown) [Example M16, C6 F13 CF(CF3)COO^- H4 N^+] was 179
